TEST_NAME: TLR3 IRF3 reporter activation blockers – cell-based, poly I:C stimulus, luciferase, 10K MLSCN set, primary screen (AID 602277)
EXPERIMENTAL_SETUP: HEK293-TLR3 RL24 IRF3 luciferase reporter, at 10 µM, active compounds read high
Recorded inhibition for the following compounds
EXPERIMENTAL_READOUT: inhibition (%)

[[record]]
compound = "Cn1cccc1Cc1nnc(SCC(=O)Nc2ccccc2F)n1CCc1ccccc1"
experimental_readout = "inhibition"
measurement = 10.1

[[record]]
compound = "Cc1onc(-c2ccccc2Cl)c1C(=O)Nc1cnn(Cc2ccccc2)c1"
experimental_readout = "inhibition"
measurement = 32.6

[[record]]
compound = "CCC(=O)c1cc(F)c(N2CCN(C(=O)c3ccco3)CC2)cc1C"
experimental_readout = "inhibition"
measurement = -21.1

[[record]]
compound = "COc1ccc(CC(=O)N2CCOCC2)cc1OC"
experimental_readout = "inhibition"
measurement = 26.1

[[record]]
compound = "C=CCn1c(COc2cccc(C)c2)nnc1SCC(=O)NC(=O)NCc1ccco1"
experimental_readout = "inhibition"
measurement = 30.1

[[record]]
compound = "CCN(CC)C(=O)COc1ccc2oc(C)c(C(=O)OC(C)C)c2c1"
experimental_readout = "inhibition"
measurement = 17.4

[[record]]
compound = "Cc1cc(NCCN(C)C)n2nc(-c3cccs3)cc2n1"
experimental_readout = "inhibition"
measurement = 1.86

[[record]]
compound = "CNc1ccc(C(O)(C(F)(F)F)C(F)(F)F)cc1C(O)(C(F)(F)F)C(F)(F)F"
experimental_readout = "inhibition"
measurement = 18.9

[[record]]
compound = "CC(=O)c1ccc(Oc2cc(C)nc(-n3nc(C)cc3C)n2)cc1"
experimental_readout = "inhibition"
measurement = 78.2

[[record]]
compound = "CCOc1ccccc1C1N(c2ccc(F)cc2)C(=O)C2CCCN21 (stereo unspecified)"
experimental_readout = "inhibition"
measurement = 17.1

[[record]]
compound = "CCOc1ccc(C2C(C(=O)OC)=CN(CCOC)C=C2C(=O)OC)cc1"
experimental_readout = "inhibition"
measurement = 7.51

